Recorded MIC for the following compounds
# Tested on: Escherichia coli
# assay.comment: Antibacterial activity against Escherichia coli ATCC25922 under 10^6 CFU/ml of bacterial inoculum culture by absorbance based assay
# Type: functional
Output spec: scalar in µg/mL, unitless text.

CC[C@H]1OC(=O)C[C@@H](O)[C@H](C)[C@@H](O[C@@H]2O[C@H](C)[C@@H](O)[C@H](N(C)C)[C@H]2O)[C@@H](CCN(C)Cc2cn(-c3cnc4ccccc4c3)nn2)C[C@@H](C)C(=O)/C=C/C(C)=C/[C@@H]1CNCc1cccc(C)c1 : 0.5

Now turn to the next compound.
Supply reported MIC belonging to this compound: CC[C@H]1OC(=O)C[C@@H](O)[C@H](C)[C@@H](O[C@@H]2O[C@H](C)[C@@H](O[C@H]3C[C@@](C)(O)[C@@H](O)[C@H](C)O3)[C@H](N(C)C)[C@H]2O)[C@@H](CC=O)C[C@@H](C)C(=O)/C=C/C(C)=C/[C@@H]1CO[C@@H]1O[C@H](C)[C@@H](O)[C@@H](OC)[C@H]1OC
2

====

# Tested on: Escherichia coli
# assay.comment: Antibacterial activity against Escherichia coli ATCC25922 incubated for 16 to 20 hrs by broth microdilution method
# Format: functional
# run.conditions: time 16-20 hrs
Parameter: MIC. Scope: all listed entries.
Field format: number, assumed µg/mL, no unit text.

CCCNC[C@H]1/C=C(C)/C=C/C(=O)[C@H](C)C[C@H](CCN(C)Cc2cn(-c3cnc4ccccc4c3)nn2)[C@H](O[C@@H]2O[C@H](C)[C@@H](O)[C@H](N(C)C)[C@H]2O)[C@@H](C)[C@H](O)CC(=O)O[C@@H]1CC : 8
CC[C@H]1OC(=O)C[C@@H](O)[C@H](C)[C@@H](O[C@@H]2O[C@H](C)[C@@H](O)[C@H](N(C)C)[C@H]2O)[C@@H](CCN(C)Cc2cn(-c3cnc4ccccc4c3)nn2)C[C@@H](C)C(=O)/C=C/C(C)=C/[C@@H]1CO : 4
CC[C@H]1OC(=O)C[C@@H](O)[C@H](C)[C@@H](O[C@@H]2O[C@H](C)[C@@H](O)[C@H](N(C)C)[C@H]2O)[C@@H](CCNCc2cn(-c3cnc4ccccc4c3)nn2)C[C@@H](C)C(=O)/C=C/C(C)=C/[C@@H]1CNCc1ccc(C)cc1 : 1

As a next step, examine the compound that follows.
Enter MIC (test system Escherichia coli) for CC[C@H]1OC(=O)C[C@@H](O)[C@H](C)[C@@H](O[C@@H]2O[C@H](C)[C@@H](O)[C@H](N(C)C)[C@H]2O)[C@@H](CCN(C)Cc2cn(-c3cnc4ccccc4c3)nn2)C[C@@H](C)C(=O)/C=C/C(C)=C/[C@@H]1CNCc1cccc(Br)c1
8

====

# Test system: Escherichia coli
# assay.comment: Antibacterial activity against drug-resistant Escherichia coli clinical isolate 1333 incubated for 16 to 20 hrs by broth microdilution method
# Format: functional
# run.conditions: time 16-20 hrs
# maps each entry to its MIC

Example results:
CC[C@H]1OC(=O)C[C@@H](O)[C@H](C)[C@@H](O[C@@H]2O[C@H](C)[C@@H](O[C@H]3C[C@@](C)(O)[C@@H](O)[C@H](C)O3)[C@H](N(C)C)[C@H]2O)[C@@H](CC=O)C[C@@H](C)C(=O)/C=C/C(C)=C/[C@@H]1CO[C@@H]1O[C@H](C)[C@@H](O)[C@@H](OC)[C@H]1OC [TYLOSIN] : > 32 µg/mL
CC[C@H]1OC(=O)C[C@@H](O)[C@H](C)[C@@H](O[C@@H]2O[C@H](C)[C@@H](O)[C@H](N(C)C)[C@H]2O)[C@@H](CCN(C)Cc2cn(-c3cnc4ccccc4c3)nn2)C[C@@H](C)C(=O)/C=C/C(C)=C/[C@@H]1CN(C)Cc1ccccc1 : 2 µg/mL
CC[C@H]1OC(=O)C[C@@H](O)[C@H](C)[C@@H](O[C@@H]2O[C@H](C)[C@@H](O)[C@H](N(C)C)[C@H]2O)[C@@H](CCN(C)Cc2cn(-c3cnc4ccccc4c3)nn2)C[C@@H](C)C(=O)/C=C/C(C)=C/[C@@H]1CNCc1cccc(C)c1 : 1 µg/mL
CC[C@H]1OC(=O)C[C@@H](O)[C@H](C)[C@@H](O[C@@H]2O[C@H](C)[C@@H](O)[C@H](N(C)C)[C@H]2O)[C@@H](CCNCc2cn(-c3cnc4ccccc4c3)nn2)C[C@@H](C)C(=O)/C=C/C(C)=C/[C@@H]1CNCc1ccc(C)cc1 : 4 µg/mL
CC[C@H]1OC(=O)C[C@@H](O)[C@H](C)[C@@H](O[C@@H]2O[C@H](C)[C@@H](O)[C@H](N(C)C)[C@H]2O)[C@@H](CC=O)C[C@@H](C)C(=O)/C=C/C(C)=C/[C@@H]1CO : > 32 µg/mL

Please report the measured MIC for CC[C@H]1OC(=O)C[C@@H](O)[C@H](C)[C@@H](O[C@@H]2O[C@H](C)[C@@H](O)[C@H](N(C)C)[C@H]2O)[C@@H](CCN2CCCCC2)C[C@@H](C)C(=O)/C=C/C(C)=C/[C@@H]1CN1CCCCC1 [TILDIPIROSIN]
16 µg/mL
